target: Recombinant human JAK3 catalytic domain (amino acids 781-1124) (Homo sapiens, UniProt P52333); assay: JAK3 inhibition assay
Sequence (P52333 781-1124): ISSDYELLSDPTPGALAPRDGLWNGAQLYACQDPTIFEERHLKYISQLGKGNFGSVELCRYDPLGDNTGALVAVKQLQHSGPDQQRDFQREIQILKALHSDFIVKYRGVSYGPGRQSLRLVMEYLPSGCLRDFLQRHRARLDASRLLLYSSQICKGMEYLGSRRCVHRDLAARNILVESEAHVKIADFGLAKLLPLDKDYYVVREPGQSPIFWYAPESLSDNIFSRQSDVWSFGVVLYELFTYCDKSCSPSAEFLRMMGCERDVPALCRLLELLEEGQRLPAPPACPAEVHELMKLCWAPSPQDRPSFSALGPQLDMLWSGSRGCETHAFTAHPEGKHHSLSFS
Value kind: IC50 (nM)

{"Compound": "Cc1cc(C#N)ncc1Oc1cc(Nc2ccc(N3CCC(N(C)C)C3)cn2)c2ncn(C)c2n1 (centres unmarked) [Compound 182]", "Value reported": 721}
{"Compound": "Cc1cc(C#N)ncc1Oc1cc(Nc2ccc(C(=O)N3CC(C(C)(C)O)C3)nn2)c2ncn(C)c2n1 [Compound 111]", "Value reported": 1050}
{"Compound": "Cc1cc(C#N)ncc1N(CC(C)O)c1cc(Nc2cc(N)ncn2)c2ncn(C)c2n1 (centres unmarked) [Cpd 187]", "Value reported": 660}
{"Compound": "Cc1cc(C(F)(F)F)ncc1Oc1cc(Nc2cc(N)ncn2)c2ncn(C)c2n1 [Compound 1]", "Value reported": 1490}
{"Compound": "C[C@H](C1CC1)N(C)c1cc(Nc2cc(N)ncn2)c2ncn(C)c2n1 [Compound 16]", "Value reported": 221}

a: Cc1cc(C#N)ncc1Oc1cc(Nc2cnn(C)c2)c2ncn(C)c2n1 [Compound 61]
b: Cc1cc(C#N)nnc1Oc1cc(Nc2cc(N)ncn2)c2ncn(C)c2n1 [Compound 3]
c: CC1COCCC1N(C)c1cc(Nc2cc(N)ncn2)c2ncn(C)c2n1 (centres unmarked) [Compound 19]
d: COC(C)CCNc1cc(Nc2cc(Oc3cnc(C#N)cc3C)nc3c2ncn3C)ncn1 (centres unmarked) [Compound 37]
e: CC(Nc1cc(Nc2cc(N)ncn2)c2ncn(C)c2n1)C1CCC1 (centres unmarked) [Compound 94]
Descending sort on IC50 required. Please write the labels in the order that was asked for.
b, a, d, c, e

I: CCNC(=O)c1ccc(Nc2cc(NC(C3CC3)C(F)(F)F)nc3c2ncn3C)cn1 (centres unmarked) [Compound 91]
II: Cc1cc(C#N)ncc1Oc1cc(Nc2ccc(C(=O)NCC(C)O)nn2)c2ncn(C)c2n1 (centres unmarked) [Compound 25]
Compare reported IC50 values for I and II . Which is lower? Your answer should be the label of the entry you select.
I
(I: 208 nM, II: 2300 nM)

P: Cc1cc(C#N)ncc1Nc1cc(Nc2ccc(C(=O)N(C)C)cn2)c2ncn(C)c2n1 [Compound 67]
Q: Cc1cc(C#N)ncc1Oc1cc(Nc2ccc(C(=O)NCCN(C)C)cn2)c2ncn(C)c2n1 [Compound 99]
Could you please tell me which of these two has the higher IC50: P or Q ? Pick one and reply with its label.
Q

P: Cc1cc(C#N)ncc1N(CCCO)c1cc(Nc2cc(N)ncn2)c2ncn(C)c2n1 [Compound 5]
Q: CN(c1cc(Nc2cc(N)ncn2)c2ncn(C)c2n1)[C@@H]1CCC[C@@H](C#N)C1 (racemic) [Compound 13]
Hi there, can you help? I need to know whether P or Q has lower measured IC50. Choose, then provide that item's label.
Q
(Q: 9.66 nM, P: 329 nM)

* * *

tested on: IFNα stimulation, Phospho-STAT1 on CD4+ cells in human whole blood; assay: Human whole blood assay (hWBA), IFNα stimulation; type: cell-based; conditions: Universal type I IFN 1000 U/mL, pSTAT1 on CD4+ cells, read-out: IFN α IC50
Value kind: IC50 (nM)

// worked examples, IC50 included
{"Molecule": "Cc1cc(C#N)ncc1Oc1cc(Nc2ccc(C(=O)N3CC(N(C)C)C3)cn2)c2ncn(C)c2n1 [Compound 106]", "Test target": "IFNα stimulation, Phospho-STAT1 on CD4+ cells in human whole blood", "IC50 / nM": 533}
{"Molecule": "Cc1cc(C#N)ncc1Oc1cc(Nc2ccc(C(=O)N3CC(C(C)(C)O)C3)cn2)c2ncn(C)c2n1 [Compound 102]", "Test target": "IFNα stimulation, Phospho-STAT1 on CD4+ cells in human whole blood", "IC50 / nM": 175}
{"Molecule": "Cc1cc(C#N)ncc1Oc1cc(Nc2ccc(C(=O)N3CCN(C)CC3)nn2)c2ncn(C)c2n1 [Compound 150]", "Test target": "IFNα stimulation, Phospho-STAT1 on CD4+ cells in human whole blood", "IC50 / nM": 269}
{"Molecule": "Cc1cc(C#N)ncc1Oc1cc(Nc2ccc(N3C[C@H](C)O[C@@H](C)C3)nn2)c2ncn(C)c2n1 [Compound 166]", "Test target": "IFNα stimulation, Phospho-STAT1 on CD4+ cells in human whole blood", "IC50 / nM": 1450}
{"Molecule": "Cc1cc(C#N)ncc1Oc1cc(Nc2ccc(N3C[C@@H](C)O[C@H](C)C3)nn2)c2ncn(C)c2n1 [Compound 168]", "Test target": "IFNα stimulation, Phospho-STAT1 on CD4+ cells in human whole blood", "IC50 / nM": 1070}

1: Cc1cc(C#N)ncc1Oc1cc(Nc2ccc(C(=O)N3CC[C@H](O)C3)cn2)c2ncn(C)c2n1 [Compound 112]
2: Cc1cc(C#N)ncc1Oc1cc(Nc2ccc(N3C[C@@H](C)O[C@H](C)C3)nn2)c2ncn(C)c2n1 (racemic) [Compound 176]
Two entries are listed, 1 and 2 . Which one carries the higher IC50? State the label of the item chosen.
2
(2: 757 nM, 1: 447 nM)

* * *

Molecular target: Recombinant human JAK2 (catalytic domain, amino acids 808-1132) (Homo sapiens)
Construct: catalytic domain, amino acids 808-1132
Sequence (O60674 808-1132): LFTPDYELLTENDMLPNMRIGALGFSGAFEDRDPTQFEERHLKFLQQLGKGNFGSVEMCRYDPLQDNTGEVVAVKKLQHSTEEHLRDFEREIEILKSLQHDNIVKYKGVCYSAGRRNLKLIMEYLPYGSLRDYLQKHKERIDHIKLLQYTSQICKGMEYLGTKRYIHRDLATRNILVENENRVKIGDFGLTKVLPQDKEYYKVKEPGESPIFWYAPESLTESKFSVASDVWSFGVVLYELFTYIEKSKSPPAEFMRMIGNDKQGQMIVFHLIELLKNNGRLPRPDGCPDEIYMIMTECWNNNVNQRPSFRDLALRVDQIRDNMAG
Assay: JAK2 inhibition assay; also: 0.7 µM ATP
Conditions: read-out: JAK2 potency IC50
Method: After 60 min at room temperature, reactions are stopped by adding 20 μL/well of detection mixture (1× detection buffer (Perkin Elmer, catalog number CR97-100) with 0.5 nM Europium-anti-phosphotyrosine (PT66) (Perkin Elmer, catalog number AD0068/AD0069) and 10 mM EDTA). […] Kinase activity is calculated by subtracting the ratio obtained in the presence of a positive control inhibitor (1 μM staurosporine) from the ratio obtained in the presence of vehicle. […]
Value kind: IC50 (nM)

{"Compound": "CCNS(=O)(=O)c1ccc(Nc2cc(Oc3cnc(C#N)cc3C)nc3c2ncn3C)cc1", "IC50, nM": 72.7}
{"Compound": "Cc1cc(C#N)ncc1Oc1cc(Nc2cc(NCCCO)ncn2)c2ncn(C)c2n1", "IC50, nM": 23.4}
{"Compound": "Cc1cc(C#N)ncc1Oc1cc(Nc2ccc(S(=O)(=O)C3CC3)cc2)c2ncn(C)c2n1", "IC50, nM": 70}

a: Cn1cnc2c(Nc3ccc(S(C)(=O)=O)cn3)cc(NC(C3CC3)C(F)(F)F)nc21 (centres unmarked)
b: Cc1cc(C#N)ncc1Oc1cc(Nc2ccc(N3CCNCC3)cn2)c2ncn(C)c2n1
c: Cc1cc(C#N)ncc1Oc1cc(Nc2ccc(N(C)C)cn2)c2ncn(C)c2n1
d: Cc1cc(C#N)nnc1Oc1cc(Nc2cc(N)ncn2)c2ncn(C)c2n1
Put the items in order so that reported IC50 rises from first to last. Write the labels, ordered according to the request.
a, b, c, d
(a: 1.17 nM, b: 18.2 nM, c: 41.4 nM, d: 78 nM)

* * *

system: IL-12 activation of STAT4 in NK-92 cells; assay: IL-12 activation of STAT4 in NK-92 cells using AphaLISA SureFire technology; type: cell-based; details: Homo sapiens, NK92; IL-12 activation of STAT4 in NK-92 cells, AlphaLISA SureFire; average IC50; read-out: IL12 pSTAT4 IC50
Value kind: IC50 (nM)

{"Smiles string": "Cc1cc(C#N)ncc1Oc1cc(Nc2ccc(S(=O)(=O)C3CC3)cc2)c2ncn(C)c2n1", "Readout units": "nM", "IC50": 42.8}
{"Smiles string": "Cc1cc(C#N)ncc1Nc1cc(Nc2ccc(C(=O)N(C)C)cc2)c2ncn(C)c2n1", "Readout units": "nM", "IC50": 205}

P: COC1CN(C(=O)c2ccc(Nc3cc(Oc4cnc(C#N)cc4C)nc4c3ncn4C)nn2)C1
Q: COCC1CN(C(=O)c2ccc(Nc3cc(Oc4cnc(C#N)cc4C)nc4c3ncn4C)nn2)C1
Hi there, can you help? I need to know whether P or Q has lower measured IC50. State your choice using its label.
P
(P: 79 nM, Q: 181 nM)

* * *

tested on: IL-12 activation of STAT4 in NK-92 cells; test: IL-12 activation of STAT4 in NK-92 cells using AphaLISA SureFire technology; type: cell-based; details: Homo sapiens, NK92; IL-12 activation of STAT4 in NK-92 cells, AlphaLISA SureFire; average IC50; read-out: IL12 pSTAT4 IC50
Value kind: IC50 (nM)

{"Compound": "Cc1cc(C#N)ncc1Oc1cc(Nc2ccc(N3CCOC[C@@H]3C)cn2)c2ncn(C)c2n1", "IC50 (nM)": 154}

1: Cc1cc(C#N)ncc1Oc1cc(Nc2ccc(C(=O)N3CCC(C)(O)CC3)cn2)c2ncn(C)c2n1
2: Cc1cc(C#N)ncc1Oc1cc(Nc2ccc(C(=O)N3CC4CC3CO4)cn2)c2ncn(C)c2n1 (stereo not shown)
// which entry reports the smaller IC50, 1 or 2 ? Kindly state the label of the option you pick.
2

I: Cc1cc(C#N)ncc1Oc1cc(Nc2cc(NCCC(C)(C)O)ncn2)c2ncn(C)c2n1
II: Cc1cc(C#N)ncc1Oc1cc(Nc2ccc(N3C[C@@H](C)O[C@H](C)C3)nn2)c2ncn(C)c2n1 [Compound 168]
III: Cc1cc(C#N)ncc1Oc1cc(Nc2ccc(N3CCNCC3)cn2)c2ncn(C)c2n1
IV: Cc1cc(C#N)ncc1Oc1cc(Nc2ccc(C(=O)N3CC(O)C3)cn2)c2ncn(C)c2n1
V: Cn1cnc2c(Nc3ccc(S(C)(=O)=O)cn3)cc(OC(C3CC3)C(F)(F)F)nc21 (stereo not shown)
Returns the items ordered by IC50, from maximum to minimum. Answer by naming the labels in the order asked.
III, IV, I, II, V

I: Cc1cc(C#N)ncc1Oc1cc(Nc2ccc(N3CCOC(C#N)C3)nn2)c2ncn(C)c2n1 (stereo not shown)
II: CCNC(c1ccc(Nc2cc(Oc3cnc(C#N)cc3C)nc3c2ncn3C)nc1)C(F)(F)F (stereo not shown)
Min IC50? I | II // return label of chosen record
II
(II: 83 nM, I: 127 nM)
